Data credit: patent US20250346668A1

target: T1, human CD3e/g antigen (ACRO, catalog number CDG-H52W5) (human, UniProt P07766 23-126; P09693 23-116); experiment: SPR (Biacore 8K), antibody captured via anti-human Fc
T1 construct: Bought reagent used as the Biacore analyte; also called hCD3e/g
readout-kind: Kd (nM)
Respond with the bare value in nM.

Some entries whose results are on file:
| binder | Kd / nM |
| --- | --- |
| hAb007-28 (antibody, V domains shown, Humanized; constant regions not specified) VH: QVQLVQSGAEVKKPGASVKVSCKASGSTFTDNYIHWVRQAPGQRLEWIGWIYPGSVNIKYNEKFKDRATITADTSASTAYMELSSLRSEDTAVYYCARDISRYYFDYWGQGTTVTVSS VL: DIVMTQSPDSLAVSLGERATMNCKSSQSLLNSRTRKNYLAWYQQKPGQPPKLLIYWASTRESGVPDRFTGSGSGTDFTLTISSLQAEDVAVYYCKQSFILRTFGGGTKLEIK | 11.8 |
| hAb007-26 (antibody, V domains shown, Humanized; constant regions not specified) VH: QVQLVQSGAEVKKPGASVKVSCKASGSTFTDNYIHWVRQAPGQRLEWIGWIYPGSVNIKYNEKFKDRATITADTSASTAYMELSSLRSEDTAVYYCARDISRYYFDYWGQGTTVTVSS VL: DIVMTQSPDSLAVSLGERATINCKSSQSLLNSRTRKNYLAWYQQKPGQPPKLLIYWASTRESGVPDRFTGSGSGTDFTLTISSLQAEDVAVYYCKQSFILRTFGGGTKLEIK | 12 |
| hAb008-27 (antibody, V domains shown, Humanized; constant regions not specified) VH: QVQLVQSGAEVKKPGASVKVSCKASGYTFTDYTVNWVRQAPGQRLEWIGYINPFNSYTKYNQKFKDRATITADTSASTAYMELSSLRSEDTAVYFCANSVSTYWGQGTTVTVSS VL: DVVMTQSPLSLPVTLGQPASISCKSSQSLLDSDGKTYLNWLLQRPGQSPRRLIQLVSKLNSGVPDRFSGSGSGTDFTLKISRVEAEDVGVFYCWQGTHFPRTFGGGTKLEIK | 18 |

Recorded result, hAb008-28 (antibody, V domains shown, Humanized; constant regions not specified) VH: QVQLVQSGAEVKKPGASVKVSCKASGYTFTDYTVNWVKQAPGQRLEWIGYINPFNSYTKYNQKFKDRATITADTSASTAYMELSSLRSEDTAVYFCANSVSTYWGQGTTVTVSS VL: DVVMTQSPLSLPVTLGQPASISCKSSQSLLDSDGKTYLNWFQQRPGQSPRRLIYLVSKLNSGVPDRFSGSGSGTDFTLKISRVEAEDVGVYYCWQGTHFPRTFGGGTKLEIK , Kd: 27.2
